assay.comment: amyloid nucleation score (Sup35N fusion, yeast selection) (log enrichment); library NNK1; higher = more nucleation; inactive = no reads after selection;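 further: zero at mode of non-aggregating sequences after 7 days selection at 30°C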
Label scheme for amyloid nucleation score: lower bin (below 0.1), middle bin (0.1 to below 1), upper bin (1 or more)

LAWCNY: middle bin
LMFSIFTYNFGKNWSSKSLG: middle bin

Form field 'band' for ICSWVHDQWAFYYISLYYVK
lower bin

Similarly, IGDRNVNLGVQVVVMKE ?
upper bin

Similarly, DLFDIDLRYFLLRVFKGCP ?
middle bin

Similarly, QIWTFRGRVLVGHTSREVVG ?
middle bin

Similarly, TAESQAKQLSSNRKVGLTPS ?
middle bin

Similarly, LEHHCAHCIGEVTINIKRFP ?
middle bin

Similarly, SSMILSNGVFNCQMGFLACK ?
middle bin

Similarly, MSSLQG ?
lower bin

Similarly, INRVSLCTVEAVLSHEDACG ?
lower bin

Similarly, GTVSDGMSVIRVKGMRWSDY ?
upper bin

Similarly, LDTDFSPCRTAVLVAIMHRG ?
middle bin

Similarly, WNMFGS ?
middle bin
